- EXPERIMENTAL TARGET: S protein trimer (SARS-CoV-2, UniProt P0DTC2 14-1208)
- PROCEDURE DETAILS: ELISA, plate coated with S protein trimer
RESULT TYPE: S Trimer (nM)

BINDER	RESULT TYPE	REPORTED VALUE
2-4 (antibody, V domains shown) VH: EVQLLESGGGLVQPGGSLRLSCAASGFTFSDFAMAWVRQAPGKGLEWVSAISGSGDITYYADSVKGRFTISRDNSKNTLYLQMNSLRAEDTAVYYCAREADGLHSPWHFDLWGQGTLVTVSS VL: DIQMTQSPSSLSASVGDRVTITCRASQSIDTYLNWYQQKPGKAPKLLIYAASALASGVPSRFSGSGSGTDFTLTISSLQPEDFATYYCQQSYSAPPYTFGQGTKVEIK	S Trimer	10.2
2-2 (antibody, V domains shown) VH: EVQLLESGGGLVQPGGSLRLSCAASGFTFSRHAMNWVRQAPGKGLEWVSGISGSGDETYYADSVKGRFTISRDNSKNTLYLQMNSLRAEDTAVYYCARDLPASYYDSSGYYWHNGMDVWGQGTLVTVSS VL: DIQMTQSPSSLSASVGDRVTITCRASQTINTYLNWYQQKPGKAPKLLIYSASTLQSGVPSRFSGSGSGTDFTLTISSLQPEDFATYYCQQSYSTFTFGQGTKVEIK	S Trimer	0.64
2-5 (antibody, V domains shown) VH: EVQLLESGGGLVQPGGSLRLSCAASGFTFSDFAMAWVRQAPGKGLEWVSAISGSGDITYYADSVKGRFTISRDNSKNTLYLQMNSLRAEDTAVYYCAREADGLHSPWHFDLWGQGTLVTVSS VL: DIQMTQSPSSLSASVGDRVTITCRASQSIHTYLNWYQQKPGKAPKLLIYAASALASGVPSRFSGSGSGTDFTLTISSLQPEDFATYYCQQSYSAPPYTFGQGTKVEIK	S Trimer	0.59
2-8 (antibody, V domains shown) VH: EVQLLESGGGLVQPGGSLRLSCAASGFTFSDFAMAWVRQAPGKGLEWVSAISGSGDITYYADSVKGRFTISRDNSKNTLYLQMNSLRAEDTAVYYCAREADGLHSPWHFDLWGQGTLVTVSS VL: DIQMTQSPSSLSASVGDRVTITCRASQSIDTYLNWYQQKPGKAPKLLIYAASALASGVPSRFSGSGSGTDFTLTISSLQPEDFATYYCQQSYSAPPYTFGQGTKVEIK	S Trimer	7.08
